All figures here come from ChEMBL document CHEMBL5579806.

Entries with reported IC50 on Histone deacetylase 1 (Homo sapiens, UniProt Q13547)
Sequence (Q13547 whole entry): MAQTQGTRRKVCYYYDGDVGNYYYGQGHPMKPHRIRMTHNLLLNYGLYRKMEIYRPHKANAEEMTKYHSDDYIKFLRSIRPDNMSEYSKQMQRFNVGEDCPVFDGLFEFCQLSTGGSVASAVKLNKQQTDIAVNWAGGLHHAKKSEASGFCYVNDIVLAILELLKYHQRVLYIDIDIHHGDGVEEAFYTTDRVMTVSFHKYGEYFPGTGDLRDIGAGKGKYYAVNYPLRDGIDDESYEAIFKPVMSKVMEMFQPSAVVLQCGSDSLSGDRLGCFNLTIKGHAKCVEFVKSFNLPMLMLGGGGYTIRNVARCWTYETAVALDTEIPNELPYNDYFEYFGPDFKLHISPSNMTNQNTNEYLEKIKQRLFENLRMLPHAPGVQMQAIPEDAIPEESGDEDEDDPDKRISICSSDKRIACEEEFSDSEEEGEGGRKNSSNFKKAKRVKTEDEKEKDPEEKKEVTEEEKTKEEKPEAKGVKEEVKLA

{"columns": ["COMPOUND STRUCTURE STRING", "TARGET OR TEST SYSTEM", "IC50 (µM)"],
 "data": [
  ["O=C(NO)c1ccc(CNC(=O)[C@@H]2Cc3c([nH]c4ccccc34)[C@@H](C3CCCC3)N2)cc1", "Histone deacetylase 1 (Homo sapiens, UniProt Q13547)", 0.204],
  ["O=C(NO)c1ccc(CNC(=O)[C@@H]2Cc3c([nH]c4ccccc34)[C@@H](C3CC3)N2Cc2ccc(Cl)cc2)cc1", "Histone deacetylase 1 (Homo sapiens, UniProt Q13547)", 1.74],
  ["COc1ccc([C@H]2N[C@H](C(=O)NCc3ccc(C(=O)NO)cc3)Cc3c2[nH]c2ccccc32)cc1OC", "Histone deacetylase 1 (Homo sapiens, UniProt Q13547)", 0.39],
  ["O=C(NO)c1ccc(CNC(=O)[C@@H]2Cc3c([nH]c4ccccc34)[C@@H](C3CC3)N2Cc2ccccc2)cc1", "Histone deacetylase 1 (Homo sapiens, UniProt Q13547)", 1.7]
]}
